Please respond with reported inhibition at 10 µM for every item in the list.
Biological target: viral reverse transcriptase (Wild Type) (Human immunodeficiency virus type 1 group M subtype B)
Construct: Viral reverse transcriptase (Wild Type) is found in extracts from bacterial clones; made in house; host or cells: Escherichia coli
Test: inhibition of viral reverse transcriptase (Wild Type), cell free assay
Format: biochemical
Conditions: @ 10 μM
Description: The utility of the pyrimidine-thioalkyl and alkylether anti-AIDS compounds of Formula IA of this invention can be determined by their ability to inhibit viral reverse transcriptase, an enzyme essential for human immunodeficiency virus replication. […] Inhibition of this enzyme is determined in a cell free assay which measures the level of radioactive precursors incorporated into DNA. […]

For every item below, please supply its inhibition at 10 µM.
1. Nc1cc(Cl)nc(SC/C=C/C(=O)N2CCCCC2)n1 [Example 197]
2. CCN(CC)Cc1ccnc(C(C)Sc2nc(N)cc(Cl)n2)c1 (stereo not drawn) [Example 228]
3. N#Cc1cc(N)nc(SCc2ccc3ccccc3c2)n1 [Example 277]
4. CN(C(=O)/C=C/CSc1nc(N)cc(Cl)n1)c1ccccc1 [Example 200]
5. CC(C)(Sc1nc(N)cc(Cl)n1)c1ccccn1 [Example 212]

A)
1: 83%; 2: 84%; 3: 84%; 4: 57%; 5: 57%

====

molecular target: viral reverse transcriptase (Wild Type) (Human immunodeficiency virus type 1 group M subtype B, UniProt P04585); construct: Viral reverse transcriptase (Wild Type) is found in extracts from bacterial clones; made in house; host or cells: Escherichia coli; experiment: inhibition of viral reverse transcriptase (Wild Type), cell free assay; type: biochemical; settings: @ 1 μM
Each entry gets -1 if its inhibition at 1 µM stays under 90%, and 1 if its inhibition at 1 µM is 90% or above.

Record excerpt, results attached:
{"columns": ["Molecule", "Category Label"],
 "data": [
  ["CC(C)Oc1ccnc(C(C)Sc2nc(N)cc(Cl)n2)c1 (centres unmarked) [Example 263]", -1],
  ["CC(C)(C)c1ccnc(CSc2nc(N)cc(C(F)(F)F)n2)c1 [Example 273]", -1],
  ["CCCN(CCC)C(=O)/C=C/CSc1nc(N)cc(Cl)n1 [Example 202]", -1],
  ["CCN(C)C(=O)/C=C/CSc1nc(N)cc(Cl)n1 [Example 203]", 1],
  ["CC(=O)c1ccnc(C(C)Sc2nc(N)cc(Cl)n2)c1 (centres unmarked) [Example 219]", -1]
]}

Q) Has Nc1cc(Cl)nc(SC/C=C/C(=O)N2CCCC2)n1 [Example 199] a recorded inhibition at 1 µM greater than or equal to 90%?
A) 1

Q) Has C=CCN(C)C(=O)/C=C/CSc1nc(N)cc(Cl)n1 [Example 201] a recorded inhibition at 1 µM greater than or equal to 90%?
A) -1

Q) Has Cc1ccnc(C(C#N)Sc2nc(N)cc(Cl)n2)c1 (centres unmarked) [Example 217] a recorded inhibition at 1 µM greater than or equal to 90%?
A) -1

Q) Has CC(Sc1nc(N)cc(Cl)n1)c1cc(C2CC2)ccn1 (centres unmarked) [Example 255] a recorded inhibition at 1 µM greater than or equal to 90%?
A) 1

====

biological target: P236L viral reverse transcriptase (Human immunodeficiency virus type 1 group M subtype B, UniProt P04585, P823L); construct: P236L viral reverse transcriptase is obtained by PNAS 90: 4713-4717 (1993); made in house; test: inhibition of viral reverse transcriptase (P236L), cell free assay; format: biochemical; conditions: 30 minutes at 37° C., read-out: IC50 (Table I, P236L)
pIC50: −log10 of the molar value.
Each entry gets Condition not met if its pIC50 stays under 7, and Condition met if its pIC50 is 7 or above.

Record excerpt, results attached:
{"columns": ["Smiles Entry", "Category Label"],
 "data": [
  ["Cc1cnc(CSc2nc(N)cc(Cl)n2)cc1C", "Condition met"],
  ["Cc1cc(C)nc(CSc2nc(N)cc(Cl)n2)c1", "Condition met"],
  ["Nc1cc(Cl)nc(SCc2cc(N3CCCC3)ccn2)n1", "Condition met"]
]}

Q) Has Cc1c(N)nc(SCc2ccc3ccccc3c2)nc1Cl a recorded pIC50 greater than or equal to 7?
A) Condition not met

====

target: P236L viral reverse transcriptase (Human immunodeficiency virus type 1 group M subtype B, UniProt P04585, P823L); construct: P236L viral reverse transcriptase is obtained by PNAS 90: 4713-4717 (1993); made in house; assay: inhibition of viral reverse transcriptase (P236L), cell free assay; type: biochemical; settings: 30 minutes at 37° C., read-out: IC50 (Table I, P236L)
pIC50: −log10 of the molar value.
Each entry gets 0 (no) if its pIC50 stays under 5, and 1 (yes) if its pIC50 is 5 or above.

Q) Has NC(=O)c1ccnc(CSc2nc(N)cc(Cl)n2)c1 a recorded pIC50 greater than or equal to 5?
A) 0 (no)

Q) Has CC(C)(C)c1ccc(CSc2nc(N)cc(Cl)n2)cc1 a recorded pIC50 greater than or equal to 5?
A) 1 (yes)

Q) Has CN(C)c1ccnc(CSc2nc(N)cc(Cl)n2)c1 a recorded pIC50 greater than or equal to 5?
A) 1 (yes)

Q) Has Nc1nc(SCc2ccc3ccccc3c2)nc(Cl)c1F a recorded pIC50 greater than or equal to 5?
A) 1 (yes)

====

biological target: viral reverse transcriptase (Wild Type) (Human immunodeficiency virus type 1 group M subtype B, UniProt P04585); construct: Viral reverse transcriptase (Wild Type) is found in extracts from bacterial clones; made in house; host or cells: Escherichia coli; experiment: inhibition of viral reverse transcriptase (Wild Type), cell free assay; assay type: biochemical; details: 30 minutes at 37° C., read-out: IC50 (Table II, Wild Type)
Please respond with reported pIC50 for every item in the list.
Give bare numbers, as −log10 of the molar value.

These solved cases illustrate the format of a correct answer.
{"columns": ["Compound", "Endpoint Label", "Reported"],
 "data": [
  ["CC(Sc1nc(N)cc(Cl)n1)c1cc2ccccc2cn1 (centres unmarked)", "pIC50", 7.72],
  ["CC(C)c1coc2cnc(C(C)Sc3nc(N)cc(Cl)n3)cc12 (centres unmarked)", "pIC50", 6.76],
  ["CC(C)c1ccnc(CSc2nc(N)cc(C(F)(F)F)n2)c1", "pIC50", 7.51],
  ["CCC(C)c1ccnc(C(C)Sc2nc(N)cc(Cl)n2)c1 (centres unmarked)", "pIC50", 7.03],
  ["CC(Sc1nc(N)cc(Cl)n1)c1cc2c(C(F)(F)F)coc2cn1 (centres unmarked)", "pIC50", 6.63]
]}

For every item below, please supply its pIC50.
1. CC(Sc1nc(N)cc(C(F)(F)F)n1)c1cc2ccoc2cn1 (centres unmarked)
2. CC(Sc1nc(N)cc(C(F)(F)F)n1)c1cc(C(C)(C)C)ccn1 (centres unmarked)
3. CC(Sc1nc(N)cc(Cl)n1)c1cc2ccoc2c(Cl)n1 (centres unmarked)

A)
1: 7.30; 2: 6.36; 3: 7.82

For every item below, please supply its pIC50.
1. CC(C)COc1ccc(C(C)Sc2nc(N)cc(Cl)n2)nc1Cl (centres unmarked)
2. Cc1coc2cnc([C@@H](C)Sc3nc(N)cc(C(F)(F)F)n3)cc12
3. CCc1ccnc(C(C)Sc2nc(N)cc(Cl)n2)c1 (centres unmarked)

A)
5.30
6.95
7.57

====

target: viral reverse transcriptase (Wild Type) (Human immunodeficiency virus type 1 group M subtype B); construct: Viral reverse transcriptase (Wild Type) is found in extracts from bacterial clones; made in house; host or cells: Escherichia coli; assay: inhibition of viral reverse transcriptase (Wild Type), cell free assay; format: biochemical; details: 30 minutes at 37° C., read-out: IC50 (Table II, Wild Type)
Please respond with reported IC50 for every item in the list.
Give bare numbers, in µM.

These solved cases illustrate the format of a correct answer.
{"columns": ["Molecule", "Scale Unit", "IC50"],
 "data": [
  ["Cc1coc2cnc([C@H](C)Sc3nc(N)cc(C(F)(F)F)n3)cc12 [Example 297]", "µM", 0.078],
  ["CCc1ccnc([C@@H](C)Sc2nc(N)cc(Cl)n2)c1 [Example 291]", "µM", 0.187],
  ["CCN(CC)C(=O)/C=C/C(C)Sc1nc(N)cc(Cl)n1 (stereo not drawn) [Example 207]", "µM", 0.049],
  ["CCc1coc2c(Cl)nc(C(C)Sc3nc(N)cc(Cl)n3)cc12 (stereo not drawn) [Example 251]", "µM", 0.144]
]}

For every item below, please supply its IC50.
1. CC(Sc1nc(N)cc(Cl)n1)c1cc(C(C)(C)C)ccn1 (stereo not drawn) [Example 210]
2. CC(Sc1nc(N)cc(Cl)n1)c1cc2c(cn1)OCC2(C)C (stereo not drawn) [Example 248]
3. Cc1coc2c(Cl)nc(C(C)Sc3nc(N)cc(C(F)(F)F)n3)cc12 (stereo not drawn) [Example 295]
4. Nc1cc(C(F)(F)F)nc(SCc2ccc3ccccc3c2)n1 [Example 270]
5. CCc1cc(C(C)Sc2nc(N)cc(Cl)n2)ncc1OC (stereo not drawn) [Example 245]
6. CC(C)c1ccnc(C(C)Sc2nc(N)cc(Cl)n2)c1 (stereo not drawn) [Example 223]

A)
1: 0.08; 2: 0.072; 3: 0.212; 4: 0.434; 5: 0.343; 6: 0.06

For every item below, please supply its IC50.
1. CC(C)c1cncc(C(C)Sc2nc(N)cc(Cl)n2)c1 (stereo not drawn) [Example 260]
2. C=C(C)c1ccnc(C(C)Sc2nc(N)cc(Cl)n2)c1 (stereo not drawn) [Example 221]
3. CC(C)c1ccnc(C(C)Sc2nc(N)cc(C(F)(F)F)n2)c1 (stereo not drawn) [Example 272]
4. CCC(CC)c1ccnc(C(C)Sc2nc(N)cc(Cl)n2)c1 (stereo not drawn) [Example 261]
5. C=Cc1cc(C(C)Sc2nc(N)cc(Cl)n2)nc(Cl)c1OC (stereo not drawn) [Example 244]
6. CC(Sc1nc(N)cc(Cl)n1)c1cc(C#N)ccn1 (stereo not drawn) [Example 214]

A)
[0.07, 0.019, 0.112, 0.059, 0.141, 0.487]
